# Tested on: OVCAR-8
# protocol_description: NCI tumour cell line growth inhibition, 48 h
Calls of active or inactive are those of the source. Rule as the data show it: active = GI50 up to about 1.1 µM and inactive = higher.
Pick one and only one: active, inactive

Field: example entries. Status: answers known.
compound	class
O=C1NCCCC12CCCNC2=O	inactive
C/C(O[Si](C(C)C)(C(C)C)C(C)C)=C(\C)C(=O)N(C)c1ccccc1Cl	inactive
COc1cccc(/C=C2\CCC(CCN(C)C)(C3=CCCC3)C2=O)c1 (stereo not given)	inactive

For this compound, state the assay outcome: CN(N=O)C(=O)N(N)CCCCC(NC(=O)OCc1ccccc1)C(=O)OCc1ccccc1 (stereo not given)
inactive

---

Recorded GI50 by entry
# Test system: IGROV-1
# protocol_description: NCI tumour cell line growth inhibition, 48 h
Calls of active or inactive are those of the source. Cut-off read from the data, not from the text of the source: active = GI50 up to about 1.1 µM and inactive = higher.

> print(dat)
                                   molecule  attribute.measured               result
1  COc1ccc(C2c3cc4c(cc3OC(N3CCOCC3)C2C)OCO4)c(OC)c1OC (stereo unspecified)                GI50   15.1 µM (inactive)
2  N#Cc1nc(C#N)n(C(=O)c2ccccc2)c1NC(=O)c1ccccc1                GI50  > 100 µM (inactive)
3  Cn1c(=O)nc2n(-c3cc(Cl)ccc3Cl)c3ccccc3nc-2c1=O                GI50     13 µM (inactive)
4               C[P+](C)(CC(F)(F)F)c1ccccc1                GI50  > 100 µM (inactive)
5          N/C(=N/O)N/N=C\c1cc(Cl)cc(Cl)c1O                GI50   6.97 µM (inactive)

Turning now to a further record.
Any idea what its GI50 is? The molecule is CC(=O)C1=C(C)N(c2ccc(C)cc2)C2(O)C3=C(C(=O)c4ccccc4C3=O)C(O)=CC12Cl (stereo unspecified)
11.1 µM (inactive)
